# target: Cellular tumor antigen p53 (Homo sapiens)
# experiment description: Primary qHTS for small molecule compounds that upregulate eGFP-tagged delta133p53alpha (in N-terminal) cells. (AID 2060322); note: nearly all actives have a fitted effect of over 75% in size;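 for activation: cells pre-induced with doxycycline then dosed without doxycycline; 0% = DMSO vehicle and 100% = reference activator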
# condition notes: NCI-H358 eGFP-delta133p53alpha fluorescence, 24 h; stronger effect = higher value
Results filed as inconclusive are left out.
Consider the following molecules; for each one, report its activation.
Answer with a number only, understood to be in %.

For O=S(=O)(NC1CCNCC1)c1cc(S(=O)(=O)c2ccccc2)ccc1C(F)(F)F the molecule record lists activation as 5.25

Given item C[C@@H]1O[C@@H](O[C@H]2[C@H](O[C@H]3[C@H](O[C@H]4CC[C@@]5(C)C(CC[C@]6(C)C5CC=C5[C@@H]7CC(C)(C)C[C@@H](O)[C@]7(C)CC[C@]56C)[C@@]4(C)CO)O[C@H](C(=O)O)[C@@H](O)[C@@H]3O)OC[C@H](O)[C@@H]2O)[C@H](O)[C@H](O)[C@H]1O (some centres undefined) , the value recorded as its activation is 3.82

activation recorded for this molecule, COC(=O)c1ccc(NC(C)=O)cc1OC , is -12.6

Kindly note the recorded activation for CN1CCCN(C(=O)c2cccc(-c3ccc(C=C4C(=O)Nc5ccc(Cl)cc54)o3)c2)CC1 , which is 19.8

Measured activation, Cn1c(=O)n(-c2ccc(C(C)(C)C#N)cc2)c2c3cc(C#Cc4cccnc4)ccc3ncc21 : 26.8

Note to self: activation recorded for CC1(C)CC[C@]2(C(=O)O[C@@H]3O[C@H](CO)[C@@H](O)[C@H](O)[C@H]3O)CC[C@]3(C)C(=CCC4[C@@]5(C)C[C@@H](O)[C@H](O)C(CO)(CO)C5CC[C@]43C)C2[C@@H]1O (some centres undefined) was -15.3

Summary for this molecule, CCCCc1ccc(C(=O)Nc2cc(-c3ccc(Cl)cc3)nn2-c2ccc(Cl)cc2)cc1 : activation is 6.68

Summary for this molecule, O=c1[nH]c2cc(Cl)ccc2c(O)c1-c1ccc(Oc2ccccc2)cc1 : activation is 23.6

Sample Cn1ncnc1[C@@H]1c2n[nH]c(=O)c3cc(F)cc(c23)N[C@H]1c1ccc(F)cc1 ; activation observed: -7.14

* * *

# experiment description: BET inhibitor-based combinations targeting novel dependencies in MECOM-rearranged (r) AML: OCI-AML3 cell line (AID 2202232); note: nearly all actives have a fitted effect of over 35% in size
# condition notes: CellTiter-Glo luminescence, 48 h; OCI-AML3 viability; series mostly up to 46 µM
Records with an inconclusive call do not appear. Activity calls are given as the source filed them. Calls come from the whole dose curve; as a rule, active = well fitted inhibition curve with a large enough effect; inconclusive = small, poorly fitted or top-dose-only effect; inactive = no such curve, though single readings can be large or run the other way.
Field 'call' accepts active, inactive

QUERY: Fill in: this test's call for Cc1ncc(NC(=O)c2ccc(CN3CCN(C)CC3)c(C(F)(F)F)c2)cc1Nc1nccc(-c2cccnc2)n1 is ___
RESULT: active

QUERY: Returns: the outcome recorded for CCCC(CCC)C(=O)Nc1ccn([C@@H]2O[C@H](CO)[C@@H](O)C2(F)F)c(=O)n1 in this assay.
RESULT: active

QUERY: What is the recorded call for this molecule in the test? CCCCCCCCCC(=O)N[C@@H](Cc1c[nH]c2ccccc12)C(=O)N[C@H](CC(N)=O)C(=O)N[C@@H](CC(=O)O)C(=O)N[C@@H]1C(=O)NCC(=O)N[C@@H](CCCN)C(=O)N[C@@H](CC(=O)O)C(=O)N[C@H](C)C(=O)N[C@@H](CC(=O)O)C(=O)NCC(=O)N[C@H](CO)C(=O)N[C@@H]([C@@H](C)CC(=O)O)C(=O)N[C@@H](CC(=O)c2ccccc2N)C(=O)O[C@@H]1C
RESULT: inactive

QUERY: # fetch the recorded call for CN(CCOc1ccc(CC2SC(=O)NC2=O)cc1)c1ccccn1 (stereo not drawn) here
RESULT: inactive

QUERY: # lookup: test call for O=C(O)CSCC(=O)NC1CCSC1=O (stereo not drawn)
RESULT: inactive

QUERY: How did this test come out for O=c1[nH]c(=O)n(C2CCCO2)cc1F (stereo not drawn) ?
RESULT: inactive

QUERY: Give the logged outcome of this assay for the following molecule: NC(=O)c1c(OCc2c(F)cc(Br)cc2F)nsc1NC(=O)NCCCCN1CCCC1
RESULT: active

QUERY: Any idea what this test logged for Cc1nc(N)sc1-c1ccnc(Nc2ccc(N3CCOCC3)cc2)n1 ?
RESULT: active

QUERY: Lab log entry: Cn1cc(-c2ccc(F)c(C(F)(F)F)c2)nc1C1CCN(c2ncnc3[nH]ncc23)CC1 — outcome as called in the assay?
RESULT: active

QUERY: Tell me the assay call for CC(=O)N1CCN(c2ccc(OC[C@H]3CO[C@](Cn4ccnc4)(c4ccc(Cl)cc4Cl)O3)cc2)CC1 please.
RESULT: inactive

QUERY: Field: outcome | Entry: N#Cc1ccc(C2CCCc3cncn32)cc1 (stereo not drawn)
RESULT: inactive

QUERY: I'd appreciate the recorded outcome for Nc1nc(Cl)nc2c1ncn2[C@H]1C[C@H](O)[C@@H](CO)O1 from this test.
RESULT: active

QUERY: Returns: the outcome recorded for Cn1c(=O)c(Oc2ccc(F)cc2F)cc2cnc(NC3CCOCC3)nc21 in this assay.
RESULT: inactive

QUERY: Answer briefly: the call reported for O=C(Cc1cccc(OC(F)(F)F)c1)Nc1ccc(CCCCc2nnc(NC(=O)Cc3ccccn3)s2)nn1 in this assay.
RESULT: inactive

QUERY: Kindly provide the recorded test outcome for the following molecule: C[C@@H]1COCCN1c1cc(=O)n2c(n1)N(Cc1cncc(Cl)c1)[C@H](C(F)(F)F)CC2
RESULT: inactive

QUERY: Entry CC(C)n1cnc2c(NCCc3ccc(O)cc3)nc(-c3csc4ccccc34)nc21 : call = ?
RESULT: active

QUERY: Recorded test call requested for CC(N[C@H]1CCCC[C@H]1NC(=O)c1ccc(Cl)cc1)c1cccc2ccccc12 (stereo partly drawn)
RESULT: active

QUERY: # fetch the recorded call for NCCOc1cc(C(=O)Nc2cc(OCCN)c3ccccc3n2)nc(C(=O)Nc2cc(OCCN)c3ccccc3n2)c1 here
RESULT: inactive

QUERY: For O=C1C(c2c(O)[nH]c3ccccc23)=Nc2ccccc21 , which call appears in the assay record?
RESULT: inactive

QUERY: Recorded test call requested for Cc1cn(-c2cc(NC(=O)c3ccc(C)c(Nc4nccc(-c5cccnc5)n4)c3)cc(C(F)(F)F)c2)cn1
RESULT: active

QUERY: # fetch the recorded call for COc1ccc(-c2ccc3cc(C(=O)O)ccc3c2)cc1C12CC3CC(CC(C3)C1)C2 here
RESULT: active

QUERY: // param item: Cc1[nH]nc(C(F)(F)F)c1Cc1sc2c(c1C(=O)N1C[C@](C)(O)CO1)c(=O)n(C)c(=O)n2C(C)C ; yields the recorded call
RESULT: inactive

QUERY: Query: recorded result category for C[C@@H](c1ncncc1F)[C@](O)(Cn1cncn1)c1ccc(F)cc1F in this test
RESULT: inactive

QUERY: Outcome? O=C(O)CC1CCC(c2ccc(-c3ccc(Nc4ccc(C(F)(F)F)nc4)cn3)cc2)CC1 (stereo not drawn)
RESULT: inactive

QUERY: Name the outcome recorded for COc1ccc(CCN(C)CCCOc2ccc(S(=O)(=O)c3[nH]c4ccccc4c3C(C)C)cc2)cc1OC in the assay.
RESULT: active

QUERY: What call does the record list for c1cnc2cc3c(cc2n1)C1CNCC3C1 ?
RESULT: inactive

QUERY: Hey, what did the test say about CC(=O)Nc1nc(C)c(-c2ccc(Cl)c(S(=O)(=O)NCCO)c2)s1 ?
RESULT: active

QUERY: Which outcome was entered for the molecule O=C(Nc1nc2cccc(-c3ccc(CN4CCS(=O)(=O)CC4)cc3)n2n1)C1CC1 in this test?
RESULT: active

* * *

Give measured Potency for each item. Keep answers brief.
# target: Cellular tumor antigen p53 (Homo sapiens) (UniProt P04637)
# Sequence (P04637 whole entry, looked up): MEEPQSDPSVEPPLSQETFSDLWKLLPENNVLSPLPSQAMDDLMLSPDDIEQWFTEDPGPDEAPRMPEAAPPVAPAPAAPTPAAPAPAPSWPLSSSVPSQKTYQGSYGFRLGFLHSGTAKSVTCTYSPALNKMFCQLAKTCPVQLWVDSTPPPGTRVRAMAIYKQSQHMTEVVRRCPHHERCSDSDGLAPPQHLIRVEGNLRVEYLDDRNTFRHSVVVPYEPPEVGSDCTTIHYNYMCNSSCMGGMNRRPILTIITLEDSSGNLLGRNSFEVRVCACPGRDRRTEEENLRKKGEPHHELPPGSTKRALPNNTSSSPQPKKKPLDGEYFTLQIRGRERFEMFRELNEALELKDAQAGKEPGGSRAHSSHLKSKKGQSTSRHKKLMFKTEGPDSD
# experiment description: Primary qHTS for small molecule compounds that upregulate eGFP-tagged delta133p53alpha (in N-terminal) cells. (AID 2060322); note: nearly all actives have a fitted effect of over 75% in size; note: potency is the fitted concentration of half-maximal effect;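 for activation: cells pre-induced with doxycycline then dosed without doxycycline; 0% = DMSO vehicle and 100% = reference activator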
# condition notes: NCI-H358 eGFP-delta133p53alpha fluorescence, 24 h
Results filed as inconclusive are left out. Active and inactive are the calls of the source. The call rests on the fitted dose curve; in most records, active means well fitted activation curve with a large enough effect; inconclusive means small, poorly fitted or top-dose-only effect; inactive means no such curve, though single readings can be large or run the other way.

For COc1ccc(Cl)c(Nc2ncnc3cc(OCC4CCN(C)CC4)c(OC)cc23)c1 on Cellular tumor antigen p53 (Homo sapiens) (UniProt P04637), measured Potency was 6.01 µM (active)

Kindly note: Cellular tumor antigen p53 (Homo sapiens) (UniProt P04637), Cc1cc(C(C)(C)C)c(O)c(C(C)(C)C)c1 , Potency value reported: 21.9 µM (active)

Value sought: Potency, system Cellular tumor antigen p53 (Homo sapiens) (UniProt P04637), item C=C1C(=O)O[C@H]2C3=C(C)CCC[C@]3(C)C(=O)C[C@@H]12 . Result: 15.1 µM (active)

For Cc1ccc(C(=O)Nc2cccc(C(F)(F)F)c2)cc1-c1ccc2nc(NCCN3CCOCC3)ncc2c1 on Cellular tumor antigen p53 (Homo sapiens) (UniProt P04637), measured Potency was 26.9 µM (active)

Item N#CC(=Cc1ccc(O)c(O)c1)C(=O)NCc1ccccc1 was tested on Cellular tumor antigen p53 (Homo sapiens) (UniProt P04637); the reported Potency is 34.3 µM (active)

// assay Cellular tumor antigen p53 (Homo sapiens) (UniProt P04637), entry COc1ccc(-c2ccc3c(N4CCOCC4)nc(N4C[C@@H](C)O[C@@H](C)C4)nc3n2)cc1CO , Potency value = 21.7 µM (active)

// compound C/C1=C/CCC2=CC(OC2=O)C(C)(C)/C=C/C1=O (configuration not stated) , assay Cellular tumor antigen p53 (Homo sapiens) (UniProt P04637), Potency value: 4.26 µM (active)

Every entry's value here was drawn from PubChem BioAssay (NCATS).
